biological target: Vitamin D3 receptor (Homo sapiens) (UniProt P11473); assay: qHTS assay for small molecule antagonists of vitamin D receptor signaling (AID 588541); details: HEK293T VDR-UAS-bla, beta-lactamase ratio, antagonist mode; series mostly up to 76.7 µM;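 further: receptor activated by calcitriol during compound treatment; on the % scale 0 is the no-effect control and ±100 the full control effect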
Sequence (P11473 whole entry, looked up): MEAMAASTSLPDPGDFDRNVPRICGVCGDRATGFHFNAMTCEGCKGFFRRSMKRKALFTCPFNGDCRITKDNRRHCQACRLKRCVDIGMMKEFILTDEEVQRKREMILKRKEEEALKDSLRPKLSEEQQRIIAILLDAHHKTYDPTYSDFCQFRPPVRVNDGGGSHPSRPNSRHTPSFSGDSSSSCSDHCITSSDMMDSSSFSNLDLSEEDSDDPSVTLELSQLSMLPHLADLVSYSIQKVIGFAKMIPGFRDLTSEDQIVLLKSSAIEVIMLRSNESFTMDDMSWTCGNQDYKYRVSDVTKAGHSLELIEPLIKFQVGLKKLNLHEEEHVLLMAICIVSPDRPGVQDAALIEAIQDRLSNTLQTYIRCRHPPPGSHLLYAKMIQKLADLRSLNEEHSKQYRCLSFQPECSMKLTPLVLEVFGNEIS
Results filed as inconclusive are left out. Activity calls are given as the source filed them. The call rests on the fitted dose curve.
Choose one outcome from this list and give only that: active, inactive

CCCCCl
inactive
C[C@]12CCC(=O)C[C@@H]1CC[C@@H]1[C@@H]2CC[C@]2(C)[C@@H](O)CC[C@@H]12
inactive
CC(C)CCON=O
inactive

Exercise: Assay result, entry CCCSP(=O)(OCC)SCCC — outcome?
Key: inactive

Exercise: Assay result, entry S=C=S — outcome?
Key: inactive

Exercise: Assay result, entry O=Cc1ccco1 — outcome?
Key: inactive

###

system: C33A; assay: Primary qHTS to identify gynecologic anti-cancer compounds using libraries of approved drugs and bioactive compounds (AID 1345084); conditions: Gynecologic cancer cell panel viability, ATPlite luminescence, 48 h; series mostly up to 57.5 µM; further: nearly all actives have a fitted effect of over 55% in size
Results filed as inconclusive are left out. Activity calls are given as the source filed them. The call rests on the fitted dose curve; in most records, active means well fitted cell-killing curve with a large enough effect; inconclusive means small, poorly fitted or top-dose-only effect, or effect the other way; inactive means flat fitted curve, though single readings scatter.
Choose one outcome from this list and give only that: active, inactive

Worked cases, answers included:
CC(=O)OC1CC(O)C2(C)C(CC(OC(C)=O)C3(C)C2CCC2(C)C(c4ccoc4)C(=O)C4OC423)C1(C)C (stereo unspecified)
inactive
CCc1[nH]c2ccc(OC)cc2c1CCN(C)C
inactive
CC(=O)OC1CC(O)C(C)(C)C2CC(OC(C)=O)C3(C)C(CCC4(C)C(c5ccoc5)C(=O)C5OC543)C12C (stereo unspecified)
inactive
COCC1OC(=O)c2coc3c2C1(C)C1=C(C3=O)C2CCC(=O)C2(C)CC1O (stereo unspecified)
inactive

Exercise: Assay result, entry O=C1C[C@@H]2OCC=C3CN4CC[C@]56c7ccccc7N1[C@H]5[C@H]2[C@H]3C[C@H]46 — outcome?
Key: inactive

Exercise: Assay result, entry CO[C@H]1[C@H](O)[C@H](O[C@H]2CC[C@]3(C)C4CC[C@]5(C)[C@H](C6=CC(=O)OC6)CC[C@]5(O)C4CC[C@@H]3C2)O[C@@H](C)[C@@H]1O (stereo partly specified) — outcome?
Key: active

Exercise: Assay result, entry C[C@@]12C[C@@H](c3ccoc3)OC(=O)C1CC[C@]1(C)[C@H]2[C@H]2C=C[C@]1(O)C(=O)O2 (stereo partly specified) — outcome?
Key: inactive

Exercise: Assay result, entry CC(C)(C)c1cc(C(C)(C)C)c2c(c1)C(O)(C(F)(F)F)C(=O)O2 (stereo unspecified) — outcome?
Key: inactive

Exercise: Assay result, entry C=C(CO)C(=O)O[C@H]1C/C(C)=C/CC/C(CO)=C/[C@H]2OC(=O)C(=C)[C@H]12 — outcome?
Key: inactive

Exercise: Assay result, entry CO[C@@H]1[C@H](O)[C@@H](O[C@@H]2C[C@H]3CC[C@@H]4C(CC[C@]5(C)[C@@H](C6=CC(=O)OC6)CC[C@]45O)[C@@]3(C)[C@H](O)C2)O[C@H](C)[C@@H]1O[C@@H]1O[C@H](CO)[C@@H](O)[C@H](O)[C@H]1O (stereo partly specified) — outcome?
Key: active

Exercise: Assay result, entry CN(C(=O)Cc1ccccc1)C(CN1CCCC1)c1ccccc1 (stereo unspecified) — outcome?
Key: inactive

###

target: Chromobox protein homolog 1 (Homo sapiens) (UniProt P83916); assay: qHTS Validation Assay for Inhibitors of HP1-beta Chromodomain Interactions with Methylated Histone Tails (AID 488953); conditions: HP1-beta chromodomain / methylated histone peptide binding assay; series mostly up to 114 µM; further: nearly all actives have a fitted effect of over 50% in size; further: potency means the concentration at half of the fitted maximal effect
Sequence (P83916 whole entry, looked up): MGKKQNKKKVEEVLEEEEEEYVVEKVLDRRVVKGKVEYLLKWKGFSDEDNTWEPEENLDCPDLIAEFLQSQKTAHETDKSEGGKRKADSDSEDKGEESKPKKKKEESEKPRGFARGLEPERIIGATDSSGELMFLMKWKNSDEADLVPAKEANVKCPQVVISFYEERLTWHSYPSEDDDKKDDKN
Records with an inconclusive call do not appear. Calls of active or inactive are those of the source. Calls come from the whole dose curve; as a rule, active = well fitted inhibition curve with a large enough effect; inconclusive = small, poorly fitted or top-dose-only effect; inactive = no such curve, though single readings can be large or run the other way.
reported_metric: Potency

CN(N=O)c1cc(O)ccc1O
50.1 µM (active)
O=C1CC[C@@]2(O)C3Cc4ccc(O)c5c4C2(CCN3CC2CC2)[C@H]1O5 (stereo partly drawn)
inactive
CCCN(CCC)CCc1ccc(O)c(O)c1
inactive
C=CCN(C1=NCCN1)c1c(Cl)cccc1Cl
inactive
COc1ccc2c(c1)[C@@]13CCCC[C@H]1[C@@H](C2)NCC3
inactive

Exercise: Value lookup for Potency; key = NC(CCCCCP(=O)(O)O)C(=O)O (stereo not drawn)
Key: inactive

Exercise: Value lookup for Potency; key = Oc1ccc2c3c1O[C@H]1c4[nH]c5ccccc5c4C[C@@]4(O)C(C2)N(CC2CC2)CCC314 (stereo partly drawn)
Key: inactive

Exercise: Value lookup for Potency; key = C[Se]C[C@H](N)C(=O)O
Key: inactive

Exercise: Value lookup for Potency; key = COc1ccc(OC)c(C(O)C(C)N)c1 (stereo not drawn)
Key: inactive

###

Overview of recorded activity, negative = inhibition for various compounds
test: qHTS profiling for inhibitors of Plasmodium falciparum proliferation (AID 504749);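 further: 0% = DMSO vehicle and full inhibition = artemisinin control; nearly all actives have a fitted effect of over 60% in size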; settings: P. falciparum in erythrocytes, SYBR Green DNA, 72 h; at 28.7 µM (top of the series); parasite line A
Records with an inconclusive call do not appear.
Note: unit % is implicit; provide only the numeric part.

As a guide, the following entries are already answered.
CC12NC(Cc3ccccc31)c1ccccc12 (configuration not stated)
-7.25
N#CC1(N2CCCCC2)CCCCC1
7.09
CNC(C)C(O)c1ccc(O)cc1 (configuration not stated)
5.26
c1ccc2sc(SNC3CCCCC3)nc2c1
7.11
CC(C)CCON=O
-1.57

Exercise: Value lookup for activity, negative = inhibition; key = CC(Cc1ccccc1)NC=O (configuration not stated)
Key: 1.78

Exercise: Value lookup for activity, negative = inhibition; key = ClC1C(Cl)C(Cl)C(Cl)C(Cl)C1Cl (configuration not stated)
Key: 10.1

Exercise: Value lookup for activity, negative = inhibition; key = O=C1CCCCC1CN1CCCCC1 (configuration not stated)
Key: 6.14

Exercise: Value lookup for activity, negative = inhibition; key = [N-]=[N+]=CC(=O)OCC(N)C(=O)O (configuration not stated)
Key: 3.54

Exercise: Value lookup for activity, negative = inhibition; key = CCCC(C)C1(CC)C(=O)NC(=O)NC1=O (configuration not stated)
Key: 2.58

Exercise: Value lookup for activity, negative = inhibition; key = CCCN1CCCC2Cc3[nH]ncc3CC21 (configuration not stated)
Key: 7.25

Exercise: Value lookup for activity, negative = inhibition; key = O=C/C=C/c1ccccc1
Key: 8.58

Exercise: Value lookup for activity, negative = inhibition; key = O=Cc1ccco1
Key: -15.5

Exercise: Value lookup for activity, negative = inhibition; key = C[N+]1(C)CCCCC1COC(=O)C(O)(c1ccccc1)c1ccccc1 (configuration not stated)
Key: -21.5

Exercise: Value lookup for activity, negative = inhibition; key = C=CCC1(C(C)CCC)C(=O)N=C(S)NC1=O (configuration not stated)
Key: -5.63

Exercise: Value lookup for activity, negative = inhibition; key = NCC(O)c1cccc(O)c1 (configuration not stated)
Key: 5.65

Exercise: Value lookup for activity, negative = inhibition; key = O=C1CC[C@@]2(O)C3Cc4ccc(O)c5c4C2(CCN3CC2CC2)[C@H]1O5 (some centres not stated)
Key: 9.65

###

tested on: PA-1; test: Primary qHTS to identify gynecologic anti-cancer compounds using libraries of approved drugs and bioactive compounds (AID 1345084); settings: Gynecologic cancer cell panel viability, ATPlite luminescence, 48 h; series mostly up to 57.5 µM; further: nearly all actives have a fitted effect of over 55% in size; on activity change, negative = cytotoxicity: on the % scale 0 is the no-effect control and ±100 the full control effect
Inconclusive results are not listed. Activity calls are given as the source filed them. Calls follow the shape of the dose curve; as a rule, active = well fitted cell-killing curve with a large enough effect; inconclusive = small, poorly fitted or top-dose-only effect, or effect the other way; inactive = flat fitted curve, though single readings scatter.
reported_metric: activity change, negative = cytotoxicity

CCCN1CCO[C@H]2c3cc(O)ccc3OC[C@@H]21
inactive
COC(=O)C12C(=O)C(C)(O)C(=O)C1(C)C(C)=CC1C34CCC(OC3=O)C(C)(CO)C4CCC12C (centres undefined)
inactive
COC1CC(O[C@H]2CC[C@@]3(C)C(=CCC4C3C(O)[C@@H](O)[C@]3(C)[C@@H](C(C)=O)CC[C@]43O)C2)OC(C)C1OC1CC(OC)C(OC2OC(C)C(O)C(O)C2O)C(C)O1 (some centres undefined)
-3.19% [at 11.6 µM] (inactive)
CN1[C@@H]2CC[C@H]1CC(OC(=O)C1C=Nc3ccccc31)C2 (some centres undefined)
inactive

###

experiment: Drug repurposing screens with cells derived from glioblastoma tumor samples (AID 1345199); settings: GBM patient neurospheres viability, ATP luminescence, 48 h; at 45.9 µM (top of the series); tumour line B; further: on the % scale 0 is the no-effect control and ±100 the full control effect; nearly all actives have a fitted effect of over 40% in size
Results filed as inconclusive are left out. Active and inactive are the calls of the source. Calls come from the whole dose curve; as a rule, active = well fitted inhibition curve with a large enough effect; inconclusive = small, poorly fitted or top-dose-only effect; inactive = flat fitted curve, though single readings scatter.
reported_metric: activity, negative = cell killing

As a guide, the following entries are already answered.
C#CCN1CC(=O)N(COC(=O)C2C(C=C(C)C)C2(C)C)C1=O (stereo unspecified)
-9.8% (inactive)
CCCC(C)(COC(N)=O)COC(=O)NC1CC1 (stereo unspecified)
-5.97% (inactive)
O=C(O)C(Cl)(Cl)Cl
-5.78% (inactive)
N#CC(C#N)=Cc1cc(O)c(O)c(O)c1
-27.1% (inactive)
O[C@H]1[C@H]2[C@H](O)CCCN2C[C@H]1O
0.771% (inactive)

Exercise: Value lookup for activity, negative = cell killing; key = ClC1=C(Cl)[C@]2(Cl)[C@@H]3[C@H]4C[C@H]([C@@H]5O[C@H]45)[C@@H]3[C@@]1(Cl)C2(Cl)Cl
Key: -22% (inactive)
